Where do the numbers come from? From patent US8618289B2.

- Experimental System: RAF kinases (Homo sapiens)
- Measurement Notes: biochemical
Measured Property: Kd

INSERT INTO results (molecule, result) VALUES
  ('COc1cc2ncnc(Sc3cccc(NC(=O)Nc4ccc(OC)c(C(F)(F)F)c4)c3)c2cc1OCCCN1CCS(=O)(=O)CC1 [Ex 246]', '250 to 500 nM'),
  ('COc1cc2c(Sc3cccc(NC(=O)Nc4cc(C(C)(C)C)on4)c3)ncnc2cc1OCCCN1CCN(C)CC1 [Ex 73]', '250 to 500 nM'),
  ('COc1cc2ncnc(Oc3cccc(NC(=O)Nc4cc(C(F)(F)F)no4)c3)c2cc1OC [Ex 254]', '250 to 500 nM');

====

- System: 290 distinct kinases tested excluding mutant variants (321 in the larger panel)
- Cond: no asterisk: panel of 290 distinct kinases
Measured Property: S35

INSERT INTO measurements (smiles_str, experimental_system, result) VALUES
  ('COc1cc(OC2CCOCC2)c2c(Sc3cccc(NC(=O)Nc4cc(C(C)(C)C)on4)c3)ncnc2c1', '290 distinct kinases tested excluding mutant variants (321 in the larger panel)', 'C (0.20 < C ≦ 0.40)'),
  ('COc1cc2ncnc(Oc3cccc(NC(=O)Nc4cc(C(C)(C)C)nn4-c4ccc(C#N)cc4)c3)c2cc1OC', '290 distinct kinases tested excluding mutant variants (321 in the larger panel)', 'D (D > 0.40)'),
  ('COc1cc2ncnc(Oc3cccc(NC(=O)Nc4cc(C(C)(C)C)nn4-c4cc[nH]c(=O)c4)c3)c2cc1OC', '290 distinct kinases tested excluding mutant variants (321 in the larger panel)', 'D (D > 0.40)'),
  ('COc1cc2ncnc(Sc3cccc(NC(=O)Nc4cc(C(C)C)nn4-c4cccnc4)c3)c2cc1OC', '290 distinct kinases tested excluding mutant variants (321 in the larger panel)', 'C (0.20 < C ≦ 0.40)'),
  ('COc1cc2ncnc(Oc3cccc(NC(=O)Nc4cc(C(C)(C)C)nn4CC(C)C)c3)c2cc1OC', '290 distinct kinases tested excluding mutant variants (321 in the larger panel)', 'C (0.20 < C ≦ 0.40)'),
  ('CCc1cc(NC(=O)Nc2cccc(Oc3ncnc4cc(OC)c(OC)cc34)c2)n(-c2ccccc2)n1', '290 distinct kinases tested excluding mutant variants (321 in the larger panel)', 'C (0.20 < C ≦ 0.40)'),
  ('COc1ccc(-n2nc(C(C)(F)F)cc2NC(=O)Nc2cccc(Oc3ncnc4cc(OC)c(OC)cc34)c2)cc1', '290 distinct kinases tested excluding mutant variants (321 in the larger panel)', 'D (D > 0.40)'),
  ('COc1cc2ncnc(Oc3cccc(NC(=O)Nc4cc(C(C)(C)C)nn4-c4ccnc(C)c4)c3)c2cc1OC', '290 distinct kinases tested excluding mutant variants (321 in the larger panel)', 'D (D > 0.40)');

====

- Experimental System: RAF kinases (Homo sapiens, UniProt P15056, V600E)
- Sequence (P15056 whole entry V600E): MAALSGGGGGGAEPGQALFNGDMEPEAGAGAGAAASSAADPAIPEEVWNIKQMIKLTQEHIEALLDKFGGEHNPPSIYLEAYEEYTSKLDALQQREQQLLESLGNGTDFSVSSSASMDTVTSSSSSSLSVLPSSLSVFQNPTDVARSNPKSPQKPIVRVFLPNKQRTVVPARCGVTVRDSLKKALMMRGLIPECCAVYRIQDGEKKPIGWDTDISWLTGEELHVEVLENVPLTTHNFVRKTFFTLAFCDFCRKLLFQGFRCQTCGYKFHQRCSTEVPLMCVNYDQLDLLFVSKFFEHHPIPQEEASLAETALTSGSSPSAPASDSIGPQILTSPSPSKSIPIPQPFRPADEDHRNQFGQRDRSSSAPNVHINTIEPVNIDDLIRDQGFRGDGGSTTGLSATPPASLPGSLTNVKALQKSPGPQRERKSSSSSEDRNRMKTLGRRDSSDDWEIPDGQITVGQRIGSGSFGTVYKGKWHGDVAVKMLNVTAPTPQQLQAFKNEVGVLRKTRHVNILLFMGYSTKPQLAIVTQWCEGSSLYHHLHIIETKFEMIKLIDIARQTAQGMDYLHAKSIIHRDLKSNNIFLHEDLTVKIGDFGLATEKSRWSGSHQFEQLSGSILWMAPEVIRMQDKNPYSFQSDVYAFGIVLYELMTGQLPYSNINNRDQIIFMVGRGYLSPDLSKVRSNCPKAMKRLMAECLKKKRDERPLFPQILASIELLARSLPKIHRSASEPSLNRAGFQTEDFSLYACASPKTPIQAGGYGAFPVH
- Measurement Notes: biochemical
Measured Property: Kd

INSERT INTO assay_data (molecule, measured_property, result) VALUES
  ('COc1cc(NC(=O)Nc2cccc(Sc3ncnc4cc(OC)c(OC)cc34)c2)cc(C(F)(F)F)c1 [Ex 115]', 'Kd', '250 to 500 nM'),
  ('COc1cc2ncnc(Oc3cccc(NC(=O)Nc4cc(C(C)(C)CO)no4)c3)c2cc1OC [Ex 255]', 'Kd', '< 250 nM'),
  ('COCCOc1cc2ncnc(Sc3cccc(NC(=O)Nc4cccc(C(C)(C)C#N)c4)c3)c2cc1OC [Ex 281]', 'Kd', '< 250 nM'),
  ('COc1cc(OC2CCOCC2)c2c(Oc3cccc(NC(=O)Nc4cc(C(C)(C)C)on4)c3)ncnc2c1 [Ex 94]', 'Kd', '250 to 500 nM'),
  ('COc1cc2c(Sc3cccc(NC(=O)Nc4cc(C(C)(C)C)on4)c3)ncnc2cc1OCCN1CCC(CO)CC1 [Ex 86]', 'Kd', '250 to 500 nM');
